# system-name: human recombinant ATX (Homo sapiens (Human))
# experiment-description: Autotaxin (ATX) activity Quanta Red assay
# details: 15 μM Rac-1-Palmitoyl-glycero-3-phosphocholine, 2 hours room temperature, determined in duplicate
Structures can show the parent of a compound that is named as a salt.
The entries below are paired with their reported IC50.
Could you give me the number in nM? Just the number is fine.

// solved cases for IC50 follow
O=C(N[C@@H]1CC(=O)N(c2ccc(CN3CCCCC3)cc2)C1)c1cc(CCc2ccc(F)cc2)on1
24
O=C(Nc1nnc(CCC2CCCCO2)s1)[C@H]1CC(=O)N(c2ccc(CN3CCOCC3)cc2)C1 (stereo partly shown)
95
O=C(Nc1nnc(CCc2ccc(Cl)cc2)s1)C1CC(=O)N(c2ccc(CN3CCCOCC3)cc2)C1 (stereo not shown)
3

[ask] Please report the recorded IC50 for O=C(Nc1nnc(CCC2CCCC2)s1)C1CC(=O)N(c2ccc(CN3CCCOCC3)cc2)C1 (stereo not shown) .
[reply] 4

[ask] Please report the recorded IC50 for O=C(Nc1nnc(CCc2ccc(Cl)cc2)s1)C1CC(=O)N(c2ccc(CN3CCCNCC3)cc2)C1 (stereo not shown) [Compound F156, dihydrochloride] .
[reply] 14

[ask] Please report the recorded IC50 for CC(C)(O)CCNCc1ccc(N2C[C@H](NC(=O)c3nnc(CCc4ccc(Cl)cc4)s3)CC2=O)cc1 [Compound F170, hydrochloride] .
[reply] 58

[ask] Please report the recorded IC50 for O=C(Nc1ncc(CCc2ccccc2)s1)C1CC(=O)N(c2ccc(CN3CCOCC3)cc2)C1 (stereo not shown) .
[reply] 4

----------
# system-name: human recombinant ATX (Homo sapiens (Human), UniProt Q13822)
# experiment-description: Autotaxin (ATX) activity Quanta Red assay
# details: 15 μM Rac-1-Palmitoyl-glycero-3-phosphocholine, 2 hours room temperature, determined in duplicate
quantity-name: pIC50
Scale: pIC50 equals -log10([C]), with [C] in mol/L.

// solved cases for pIC50 follow
O=C(NC1CC(=O)N(c2ccc(CN3CCCCC3)cc2)C1)c1ccc(CCc2ccccc2)nn1 (stereo not shown)
5.15
CN(Cc1ccc(N2C[C@@H](C(=O)Nc3nnc(CCc4ccc(Cl)cc4)s3)CC2=O)cc1)C1CCOC1 (stereo partly shown)
9.00

[ask] Please report the recorded pIC50 for O=C(Nc1nnc(CCc2ccc(Cl)cc2)s1)C1CC(=O)N(c2ccc(CN3CCC(O)CC3)cc2)C1 (stereo not shown) .
[reply] 8.52

[ask] Please report the recorded pIC50 for CC(C)N(C)Cc1ccc(N2CC(C(=O)Nc3nnc(CCc4ccc(Cl)cc4)s3)CC2=O)cc1 (stereo not shown) .
[reply] 7.74

[ask] Please report the recorded pIC50 for COc1ccc(CCc2nnc(NC(=O)C3CC(=O)N(c4ccc(CN5CCOCC5)cc4)C3)o2)cc1 (stereo not shown) .
[reply] 5.61

[ask] Please report the recorded pIC50 for O=C(Nc1nnc(CCc2ccc(C(F)(F)F)cc2)s1)[C@H]1CC(=O)N(c2ccc(CN3CCOCC3)cc2)C1 .
[reply] 8.70

[ask] Please report the recorded pIC50 for O=C(Nc1nnc(CCC2CCOCC2)s1)C1CC(=O)N(c2ccc(CN3CCCCC3)cc2)C1 (stereo not shown) .
[reply] 6.31

----------
# system-name: human recombinant ATX (Homo sapiens (Human), UniProt Q13822)
# experiment-description: Autotaxin (ATX) activity Quanta Red assay
# details: 15 μM Rac-1-Palmitoyl-glycero-3-phosphocholine, 2 hours room temperature, determined in duplicate
pIC50: −log10 of the molar value. Counter-ions that a name gives are not always drawn.
Kind request: treat 8 as inclusive, so pIC50 at 8 or higher is T, anything lower is F.

O=C(Nc1nnc(CCC2CCCC2)s1)C1CC(=O)N(c2ccc(CN3CCC(F)CC3)cc2)C1 (stereo not drawn) [Compound F113]
T
NCc1ccc(N2CC(C(=O)Nc3nnc(CCc4ccc(Cl)cc4)s3)CC2=O)cc1 (stereo not drawn) [Compound F203]
F
O=C(NC1CC(=O)N(c2ccc(CN3CCCCC3)cc2)C1)c1nnc(CCc2ccccc2)s1 (stereo not drawn) [Compound F172]
F
O=C(NC1CC(=O)N(c2ccc(CN3CCCCCC3)cc2)C1)c1nnc(CCc2ccc(Cl)cc2)s1 (stereo not drawn) [Compound F134]
T
COc1ccc(CCc2cc(NC(=O)C3CC(=O)N(c4ccc(CN5CCOCC5)cc4)C3)on2)cc1 (stereo not drawn) [Compound F199]
F
O=C(N[C@@H]1CCN(c2ccc(CN3CCOCC3)cc2)C1)c1nnc(CCc2ccc(Cl)cc2)s1 [Compound F131, hydrochloride]
T
O=C(Nc1cnc(CCc2ccccc2)s1)C1CC(=O)N(c2ccc(CN3CCOCC3)cc2)C1 (stereo not drawn) [Compound F201]
F
O=C(Nc1nnc(CCc2ccc(Cl)cc2)s1)[C@H]1CC(=O)N(c2ccc(CN3CCCCCC3)cc2)C1 [Compound F91]
T
O=C(Nc1ccc(CCc2ccccc2)nn1)C1CC(=O)N(c2ccc(CN3CCOCC3)cc2)C1 (stereo not drawn) [Compound F162]
F
O=C(Nc1nnc(CCc2ccc(Cl)cc2)s1)C1CC(=O)N(c2ccc(CNC3CCOCC3)cc2)C1 (stereo not drawn) [Compound F105, hydrochloride]
T

Now consider a different compound.
[ask] Identify whether the reported pIC50 of the following compound is 8 or greater: O=C(N[C@@H]1CC(=O)N(c2ccc(CN3CCOCC3)cc2)C1)c1nnc(CCc2ccc(Cl)cc2)s1 [Compound F130]
[reply] T

----------
The entries below are paired with their reported IC50.
# system-name: human recombinant ATX (Homo sapiens (Human), UniProt Q13822)
# experiment-description: Autotaxin (ATX) activity Quanta Red assay
# details: 15 μM Rac-1-Palmitoyl-glycero-3-phosphocholine, 2 hours room temperature, determined in duplicate
Structures can show the parent of a compound that is named as a salt.
Could you give me the number in nM? Just the number is fine.

O=C(NC1CC(=O)N(c2ccc(CN3CCCCC3)cc2)C1)c1cnc(CCc2ccccc2)s1 (stereo not drawn)
9350

[ask] Please report the recorded IC50 for O=C(Nc1ccc(CCc2ccc(F)cc2)nn1)[C@H]1CC(=O)N(c2ccc(CN3CCOCC3)cc2)C1 [Compound F180, hydrochloride] .
[reply] 11

[ask] Please report the recorded IC50 for O=C(Nc1ncc(COC2CCCCC2)s1)C1CC(=O)N(c2ccc(CN3CCOCC3)cc2)C1 (stereo not drawn) .
[reply] 163

[ask] Please report the recorded IC50 for CCCN(CCC)Cc1ccc(N2CC(C(=O)Nc3nnc(CCc4ccc(Cl)cc4)s3)CC2=O)cc1 (stereo not drawn) .
[reply] 3

[ask] Please report the recorded IC50 for CN(Cc1ccc(N2C[C@@H](C(=O)Nc3ccc(CCc4ccc(F)cc4)nn3)CC2=O)cc1)C1CCOC1 (stereo partly drawn) .
[reply] 6

[ask] Please report the recorded IC50 for O=C(Nc1nnc(CCC2CCCCC2)s1)C1CC(=O)N(c2ccc(CN3CCOCC3)cc2)C1 (stereo not drawn) .
[reply] 2

[ask] Please report the recorded IC50 for O=C(Nc1nnc(CCc2ccc(Cl)cc2)s1)[C@@H]1CC(=O)N(c2ccc(CN3CCCCC3)cc2)C1 .
[reply] 49

----------
The entries below are paired with their reported IC50.
# system-name: human recombinant ATX (Homo sapiens (Human))
# experiment-description: Autotaxin (ATX) activity Quanta Red assay
# details: 15 μM Rac-1-Palmitoyl-glycero-3-phosphocholine, 2 hours room temperature, determined in duplicate
# Description: The ATX enzyme assay (Quanta Red assay) described in accompanying Example section may be used to measure the pharmacological effects of the compounds of the present invention. Autotaxin (ATX) Activity Quanta Red Assay Measuring ATX activity using an enzyme coupled Quanta Red assay (Thermo Scientific—Pierce Protein Research Products, Product #15159) was determined as follows. […]
Could you give me the number in nM? Just the number is fine.

O=C(Nc1nnc(CCC2CCCC2)s1)C1CC(=O)N(c2ccc(CN3CCCC(F)(F)C3)cc2)C1 (stereo not drawn)
3

Now let's try a different one.
[ask] Entry O=C(Nc1nnc(CCc2ccc(Cl)cc2)s1)C1CC(=O)N(c2ccc(CN3CC4CC4C3)cc2)C1 (stereo not drawn) , system human recombinant ATX (Homo sapiens (Human)): what IC50 was measured?
[reply] 3

----------
# system-name: human recombinant ATX (Homo sapiens (Human), UniProt Q13822)
# experiment-description: Autotaxin (ATX) activity Quanta Red assay
# details: 15 μM Rac-1-Palmitoyl-glycero-3-phosphocholine, 2 hours room temperature, determined in duplicate
# Experimental: The ATX enzyme assay (Quanta Red assay) described in accompanying Example section may be used to measure the pharmacological effects of the compounds of the present invention. Autotaxin (ATX) Activity Quanta Red Assay Measuring ATX activity using an enzyme coupled Quanta Red assay (Thermo Scientific—Pierce Protein Research Products, Product #15159) was determined as follows. […]
Where a name gives a salt, the structure may show the parent alone.
The entries below are paired with their reported pIC50.
Scale: pIC50 equals -log10([C]), with [C] in mol/L.

// solved cases for pIC50 follow
O=C(Nc1nnc(CCC2CCCO2)s1)[C@H]1CC(=O)N(c2ccc(CN3CCCCC3)cc2)C1 (stereo partly shown)
6.21
O=C(Nc1ccc(CCc2ccc(F)cc2)nn1)C1CC(=O)N(c2ccc(CN3CCOCC3)cc2)C1 (stereo not shown)
8.15
O=C(NC1CC(=O)N(c2ccc(CN3CCOCC3)cc2)C1)c1nnc(CCc2ccc(Cl)cc2)s1 (stereo not shown)
9.00
O=C(NC1CC(=O)N(c2ccc(CN3CCCCC3)cc2)C1)c1ncc(CCc2ccccc2)s1 (stereo not shown)
6.33
CC1CCN(Cc2ccc(N3C[C@H](NC(=O)c4nnc(CCc5ccc(Cl)cc5)s4)CC3=O)cc2)CC1
8.30

[ask] Please report the recorded pIC50 for O=C(Nc1nnc(CCc2ccc(F)cc2)s1)[C@H]1CC(=O)N(c2ccc(CN3CCOCC3)cc2)C1 (stereo in doubt) [Compound F215, hydrochloride] .
[reply] 8.52

[ask] Please report the recorded pIC50 for O=C(Nc1ccc(CCc2ccc(F)cc2)nn1)[C@H]1CC(=O)N(c2ccc(CN3CCCCC3)cc2)C1 .
[reply] 7.52

Reference source for all entries: patent US10138230B2
